- Test system: SNB-75 CNS
- assay: NCI tumour cell line growth inhibition, 48 h; in the data active means GI50 below about 0.43 µM; inactive means the rest
Your reply should match one of these outcome classes. active, inactive

Request: For Nc1ncn([C@H]2CC(O)[C@@H](CO)S2)c(=O)n1 (stereo partly specified) , which call appears in the assay record?
Response: inactive

Request: One more molecule: "Cc1ccc(-c2nc(NCCOCCOCCN)nc(N3CCN(c4ccccn4)CC3)n2)cc1"
Response: inactive

Request: One more molecule: "Nc1nc(SCc2ccccc2CCl)c2[nH]cnc2n1"
Response: inactive

* * *

- System: UO-31 renal
- assay: NCI tumour cell line growth inhibition, 48 h
assay_readout: TGI

Below are worked cases with known answers.
O=[N+]([O-])c1ccccc1N=Nc1c(O)[nH]c2c(Cl)cccc12    > 67.2 µM
CC1(C)CC(O)CC(C)(C)N1O    > 100 µM
CN(C)S(=O)(=O)c1ccc2[nH]c(O)c(C3=Nc4ccccc4C3=O)c2c1    > 100 µM
CC(C)(C)OC(=O)Cn1ncn(NC(=O)Cc2ccccc2)c1=S    > 10 µM

Next molecule, TGI to be filled in.
Request: Which TGI value belongs to COC(=O)c1ccccc1CC1Cc2c(C)ccc(C)c2C1=O (stereo not given) ?
Response: > 100 µM
